Biological target: Gal(b1-4)GlcNAc(b1-6)Gal(b1-4)GlcNAc
Test: glycan array binding signal (z-score within array); higher = stronger binding
Details: glycan notation: IUPAC condensed, linker removed
This excerpt belongs to a sample that is enriched for the strongest signals.
experimental-endpoint: glycan array binding signal (z-score)

- binder: "Calsepa (Calystegia sepium), P93114 (protein) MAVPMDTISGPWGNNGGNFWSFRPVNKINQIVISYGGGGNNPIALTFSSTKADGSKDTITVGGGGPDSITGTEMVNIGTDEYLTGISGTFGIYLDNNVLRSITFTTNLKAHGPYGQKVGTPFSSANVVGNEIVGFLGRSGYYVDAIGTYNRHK"
  reported-result: -0.251
